molecular target: T1, Human C5 (human, UniProt P01031 19-1676); test: SPR, mAb captured by anti-hFc, 37C
T1 construct: The natural protein has a beta and an alpha chain; also called complement factor 5; complement component 5
A collection of binders and their measured kon
PROPERTY_MEASURED: kon (M⁻¹ s⁻¹)

- BINDER: "H4H12167P (antibody, human IgG4, V domains shown) VH: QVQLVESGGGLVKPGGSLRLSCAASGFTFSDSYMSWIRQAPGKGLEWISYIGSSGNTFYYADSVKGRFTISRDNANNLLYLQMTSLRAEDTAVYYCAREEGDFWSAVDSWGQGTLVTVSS VL: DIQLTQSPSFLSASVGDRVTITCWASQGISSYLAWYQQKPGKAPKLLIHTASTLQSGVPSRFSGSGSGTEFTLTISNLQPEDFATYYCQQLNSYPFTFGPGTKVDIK"
  NUMERIC_READOUT: "1.29e+06"
- BINDER: "H4H12163P (antibody, human IgG4, V domains shown) VH: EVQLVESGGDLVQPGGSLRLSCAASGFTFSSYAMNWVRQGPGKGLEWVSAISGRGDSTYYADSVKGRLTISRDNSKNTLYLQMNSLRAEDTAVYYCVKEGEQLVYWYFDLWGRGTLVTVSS VL: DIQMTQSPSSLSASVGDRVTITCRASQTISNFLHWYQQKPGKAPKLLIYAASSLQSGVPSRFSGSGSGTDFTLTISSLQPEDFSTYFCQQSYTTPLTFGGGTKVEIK"
  NUMERIC_READOUT: 911000
- BINDER: "H4H12166P6 (antibody, human IgG4, V domains shown, human IgG4 Fc with S108P hinge mutation) VH: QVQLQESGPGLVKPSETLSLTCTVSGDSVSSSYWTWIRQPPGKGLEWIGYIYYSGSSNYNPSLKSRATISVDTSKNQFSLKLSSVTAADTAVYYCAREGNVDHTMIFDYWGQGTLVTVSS VL: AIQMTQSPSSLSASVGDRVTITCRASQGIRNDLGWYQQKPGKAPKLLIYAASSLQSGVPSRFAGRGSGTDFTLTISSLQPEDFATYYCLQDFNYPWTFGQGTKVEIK"
  NUMERIC_READOUT: 542000
- BINDER: "H4H12161P (antibody, human IgG4, V domains shown) VH: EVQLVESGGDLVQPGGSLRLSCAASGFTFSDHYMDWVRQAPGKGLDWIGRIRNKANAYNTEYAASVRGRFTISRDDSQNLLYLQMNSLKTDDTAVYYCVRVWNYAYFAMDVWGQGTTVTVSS VL: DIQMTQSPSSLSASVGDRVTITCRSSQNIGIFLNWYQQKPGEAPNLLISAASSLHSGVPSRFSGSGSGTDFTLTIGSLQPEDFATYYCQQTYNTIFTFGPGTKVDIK"
  NUMERIC_READOUT: 116000
- BINDER: "H4H12168P (antibody, human IgG4, V domains shown) VH: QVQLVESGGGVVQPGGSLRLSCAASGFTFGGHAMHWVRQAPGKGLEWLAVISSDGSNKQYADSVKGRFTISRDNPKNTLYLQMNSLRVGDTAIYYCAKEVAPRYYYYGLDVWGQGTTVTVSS VL: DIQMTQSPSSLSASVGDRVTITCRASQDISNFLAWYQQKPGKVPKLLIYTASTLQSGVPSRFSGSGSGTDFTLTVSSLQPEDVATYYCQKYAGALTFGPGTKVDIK"
  NUMERIC_READOUT: 25000
